// provenance: patent US20130059830A1

# target_of_assay: human PrCP (Homo sapiens, UniProt P42785)
# Construct: made in house
# Sequence (P42785 46-496): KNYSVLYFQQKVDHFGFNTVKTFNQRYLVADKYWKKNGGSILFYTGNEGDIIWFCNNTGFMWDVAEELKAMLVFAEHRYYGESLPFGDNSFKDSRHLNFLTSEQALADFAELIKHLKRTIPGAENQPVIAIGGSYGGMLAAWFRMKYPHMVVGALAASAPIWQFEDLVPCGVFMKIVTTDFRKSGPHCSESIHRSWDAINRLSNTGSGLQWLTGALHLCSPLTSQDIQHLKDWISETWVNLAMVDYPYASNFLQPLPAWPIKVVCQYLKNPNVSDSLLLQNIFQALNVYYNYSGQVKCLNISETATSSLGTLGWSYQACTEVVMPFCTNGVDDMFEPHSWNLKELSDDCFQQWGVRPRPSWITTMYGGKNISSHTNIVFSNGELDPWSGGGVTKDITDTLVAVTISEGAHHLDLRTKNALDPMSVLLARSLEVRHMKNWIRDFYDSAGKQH
# measurement_notes: Prolylcarboxypeptidase (PRCP) enzyme activity assay, fluorescence intensity kinetic assay, human enzyme
# Format: biochemical
# assay_setup: recombinant human PrCP, 15 uM substrate, pH 5.5, 37° C.
measurement_name: pIC50
Here pIC50 is given on a logarithmic scale as minus log10 of the concentration in mol/L.

Reference set (3 entries):
{"columns": ["molecule", "target_of_assay", "pIC50"],
 "data": [
  ["O=C(Cc1ccccc1C(F)(F)F)N1CCCC(c2cc(-c3ccc(F)cc3)nn2-c2ncccn2)C1 (stereo not shown)", "human PrCP (Homo sapiens, UniProt P42785)", 9.19],
  ["COC(=O)N1C[C@@H](c2cc(-c3ccc(Cl)cc3)nn2-c2ncccn2)CC[C@@H]1c1ccccc1 (mixture of isomers)", "human PrCP (Homo sapiens, UniProt P42785)", 8.89],
  ["CNC(=O)N1C[C@@H](c2cc(-c3ccc(F)cc3)nn2-c2ncccn2)CC[C@@H]1c1ccccc1 (mixture of isomers)", "human PrCP (Homo sapiens, UniProt P42785)", 8.00]
]}

Now for the molecule whose pIC50 we want.
Bench note: what pIC50 did O=C(NCCc1ccc(F)cc1)N1CCCC(c2cc(-c3ccc(F)cc3)nn2-c2ncccn2)C1 (stereo not shown) show?
7.57

###

# target_of_assay: human PrCP (Homo sapiens, UniProt P42785)
# measurement_notes: Prolylcarboxypeptidase (PRCP) enzyme activity assay, fluorescence intensity kinetic assay, human enzyme
# assay_setup: recombinant human PrCP, 15 uM substrate, pH 5.5, 37° C.
Readings of log10(IC50) for the listed molecules
On a log10 scale: recorded IC50, unit nM.

Reference set (6 entries):
{"columns": ["molecule", "measurement_name", "reported_measurement"],
 "data": [
  ["O=C(CC1CCCCC1)N1CCCC(c2cc(-c3ccc(F)cc3)nn2-c2ncccn2)C1 (stereo not shown)", "log10(IC50)", 1.48],
  ["O=C(Cc1cccc2ccccc12)N1CCCC(c2cc(-c3ccc(F)cc3)nn2-c2ncccn2)C1 (stereo not shown)", "log10(IC50)", 0.08],
  ["Fc1ccc(-c2cc([C@H]3CC[C@H](c4ccccc4)NC3)n(-c3ncccn3)n2)cc1 (mixture of isomers)", "log10(IC50)", 0.61],
  ["Fc1ccc(-c2cc([C@@H]3CC[C@H](CCc4ccccc4)NC3)n(-c3ncccn3)n2)cc1 (racemic)", "log10(IC50)", 0.32],
  ["CC(C)(C)OC(=O)N1C[C@H](c2cc(-c3ccc(F)cc3)nn2-c2ncccn2)CC[C@@H]1CCc1ccccc1 (racemic)", "log10(IC50)", 0.90],
  ["O=S(=O)(CCC(F)(F)F)N1CCCC(c2cc(-c3ccc(F)cc3)nn2-c2ncccn2)C1 (stereo not shown)", "log10(IC50)", 0.65]
]}

Now for the molecule whose log10(IC50) we want.
Under human PrCP (Homo sapiens, UniProt P42785): log10(IC50) value of Clc1ccc(-c2cc(C3CNC(CCc4ccccc4)CO3)n(-c3ncccn3)n2)cc1 (single isomer, unassigned) ?
1.08
